- subject.of.test: leucine aminopeptidase (Sus scrofa)
- Construct: purchased Sigma, UK type III-CP (catalogue number not given); host or cells: porcine kidney
- Sequence (P28839 whole entry): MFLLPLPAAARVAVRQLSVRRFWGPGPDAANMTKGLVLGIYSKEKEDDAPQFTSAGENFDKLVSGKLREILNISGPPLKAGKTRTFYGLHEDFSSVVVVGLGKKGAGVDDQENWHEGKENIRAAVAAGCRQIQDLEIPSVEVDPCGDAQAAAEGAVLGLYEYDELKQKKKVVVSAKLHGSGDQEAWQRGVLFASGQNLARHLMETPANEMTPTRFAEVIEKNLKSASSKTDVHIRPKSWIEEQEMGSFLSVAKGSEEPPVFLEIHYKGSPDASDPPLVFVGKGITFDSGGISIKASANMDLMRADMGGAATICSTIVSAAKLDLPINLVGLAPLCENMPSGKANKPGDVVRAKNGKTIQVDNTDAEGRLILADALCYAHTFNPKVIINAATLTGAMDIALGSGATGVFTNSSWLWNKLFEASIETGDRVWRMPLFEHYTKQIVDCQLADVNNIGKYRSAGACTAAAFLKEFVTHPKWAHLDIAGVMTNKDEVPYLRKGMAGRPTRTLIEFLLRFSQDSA
- assay.overview: Hydrolysis kinetics in leucine aminopeptidase solution
- Type: in vitro ADME, porcine
- measurement.context: pig; 50 mM phosphate buffer pH 7.4, 37° C., leucine aminopeptidase 25 U/ml
Where no end group is shown, it is not given here.
observation.type: half-life

WAGGDASGE [DSIP, H-Trp-Ala-Gly-Gly-Asp-Ala-Ser-Gly-GIu-OH, reference compound] = < 0.333 h
KKKKKKYGGFLKKKKKK [(Lys)6-Leu-Enkephalin-(Lys)6-OH, H-Lys6-Tyr-Gly-Gly-Phe-Leu-Lys6 OH] = > 100 h
YGGFLKKKKKKKKKK [Leu-Enkephalin-(Lys)10-OH, H-Tyr-Gly-Gly-Phe-Leu-Lys10-OH] = > 100 h
